Exercise: state measured Fold IC50 vs H3/L3 for each of the binders provided.
TARGET_UNDER_TEST: T1, human CD30 (commercial, conjugated to digoxigenin) (human, UniProt P28908 19-379, limits assumed, conjugated to digoxigenin (DIG))
T1 sequence (looked up): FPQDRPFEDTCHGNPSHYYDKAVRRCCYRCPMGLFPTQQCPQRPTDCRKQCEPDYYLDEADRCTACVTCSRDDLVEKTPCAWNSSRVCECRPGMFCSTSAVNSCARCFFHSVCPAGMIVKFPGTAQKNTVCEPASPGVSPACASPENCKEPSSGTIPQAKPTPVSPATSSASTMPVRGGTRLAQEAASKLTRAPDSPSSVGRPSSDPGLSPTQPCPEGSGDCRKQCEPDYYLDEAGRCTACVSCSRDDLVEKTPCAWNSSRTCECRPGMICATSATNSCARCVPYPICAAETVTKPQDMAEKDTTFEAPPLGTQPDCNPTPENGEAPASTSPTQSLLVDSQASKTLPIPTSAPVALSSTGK
EXPERIMENT_SUMMARY: AlphaScreen competition
Provide only the numeric value, understood in fold.

// recorded Fold IC50 vs H3/L3 for AC10 H3/L3.8 (antibody, IgG1, name in Kabat numbering, V domains shown) VH: QIQLVQSGPEVKKPGASVKVSCKASGYTFTDYYITWVRQAPGQGLEWMGWIYPGSGNTKYNEKFQGRFVFSVDTSASTAYLQISSLKAEDTAVYFCANYGNYWFAYWGQGTLVTVSS VL: DIVLTQSPDSLAVSLGERATINCKASQDVDFDGDSYMNWYQQKPGQPPKVLIYAASNLESGIPARFSGSGSGTDFTLTINSLEAEDAATYYCQQSNEDPWTFGGGTKVEIK : 0.94

// recorded Fold IC50 vs H3/L3 for AC10 H3/L3.62 (antibody, IgG1, name in Kabat numbering, V domains shown) VH: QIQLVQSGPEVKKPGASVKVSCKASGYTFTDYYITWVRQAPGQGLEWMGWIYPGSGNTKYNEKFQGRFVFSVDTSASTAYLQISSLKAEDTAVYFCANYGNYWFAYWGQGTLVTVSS VL: DIVLTQSPDSLAVSLGERATINCKASQSVDFDGDSYMNWYQQKPGQPPKVLIYAASNLESGIPARFSGSGSGTDFTLTINSLEAEDAATYYCQQSNELPWTFGGGTKVEIK : 0.46
